Values from PubChem BioAssay (NCI)

- Tested on: HS 578T breast
- Protocol: NCI-60 one-dose screen, 48 h (100 = growth as untreated, 0 = no growth, -100 = all killed)
- Condition: 10 µM unless noted
The panel holds about 83,000 compounds, 20% with a hit somewhere; the sample as a whole holds those more often.
Recorded Metric: growth (%)
Write down the numeric answer in % and omit the unit.

// known answers, use as guide
N/C(=N\N=C\c1ccc([N+](=O)[O-])cc1)c1c(N)nc(=S)[nH]c1-c1ccc(Cl)cc1Cl
87.1
O=C(/C=C/Nc1ccc(Cl)cc1)c1ccc2c(c1)Nc1ccccc1S2
8.24
Nc1nc(-c2ccccc2)c(N=Nc2ccc([N+](=O)[O-])cc2Cl)s1
85
C/C(=N\N=C1/C(=O)Nc2ccc(Cl)cc21)c1ccc2c(c1)Nc1ccccc1S2
9.82
S=C(Nc1ccccc1)Nc1ccc(OCc2nc3ccccc3[nH]2)cc1
50.6

// lookup growth | system=HS 578T breast | key= O=C(Cn1c2c(sc1=O)[C@H]1[C@@H](O)[C@@H](O)[C@H](O)[C@@H]1CS2)N1CCOCC1
93.3

GET /values?readout=growth&system=HS 578T breast&item= COc1ccc(/C=C/c2nc3ccccc3nc2Nc2cccc(C)c2)cc1
92.3

Request - read-out growth | tested on HS 578T breast | molecule COc1ccc(-c2ccc(SCC(=O)NCCc3ccc(S(N)(=O)=O)cc3)nn2)cc1
89.8

Quick check: growth on HS 578T breast, item OCNc1ccc(-n2cnc3cc(-c4ccc(O)cc4)ccc32)cc1C(F)(F)F ?
11.2

Write down the reported growth of CC(C)Sc1nc(NCCc2c[nH]c3ccccc23)c(C#N)c(-c2ccccc2)n1 , test system: HS 578T breast.
8.79

What reported growth corresponds to COCOc1cc2oc(C(=O)N[C@@H](Cc3ccccc3)C(O)C(=O)NCc3ccccc3)c(C)c(=O)c2cc1OCOC (some centres undefined) on HS 578T breast?
71.4

Record lookup: for HS 578T breast, what growth belongs to C=C1CC[C@@H]2[C@]3(C)COC(c4ccccc4)O[C@@H]3CC[C@@]2(C)[C@@H]1C/C=C1/C(=O)OCC1OC(C)=O (some centres undefined) ?
61.5

Give the reported growth for O=C1c2c(c3c4cc(F)ccc4oc3c3[nH]c4ccc(Br)cc4c23)C(=O)N1O (system: HS 578T breast).
-4.24

Notebook entry, HS 578T breast assay: growth of Cc1ccc2c(c1)nc(-c1ccccc1)n2CC(=O)N=Nc1c(O)[nH]c2ccc(Br)cc12 = ?
-5.01

So what growth did N=C1N=C(SCc2nc3ccccc3[nH]2)NC(=O)/C1=C/c1ccc(Cl)cc1 get with HS 578T breast?
98.3

Report growth for COc1ccc(C2=NN(c3ccccc3)C(c3ccc(OC)c(OCc4ccccc4)c3)C2)cc1OC (centres undefined) tested on HS 578T breast.
97.7

Query growth on HS 578T breast for O=C(COc1ccc(NC(=O)Nc2ccc(Cl)c(Cl)c2)cc1)N=Nc1c(O)[nH]c2ccc(Br)cc12
-5.94

# query: growth | item O=C(Nc1ccc(C(F)(F)F)cc1)Nc1ccc2oc(=O)ccc2c1 | system: HS 578T breast
49.7

What measured growth is associated with Nc1nc(-c2ccccc2)c(N=Nc2ccc(Cl)cc2[N+](=O)[O-])s1 on HS 578T breast?
79.6
